biological target: human GLP-1 receptor (human, UniProt P43220 24-463); assay: cell-based or functional assay
measured-quantity: EC50, cAMP

Known results for binders:
-- ask # input binder: YXEGTXTSDXSIXLDXKAQXEFIEKLIEGGPSSGAPPPS (Aib2, αMeF(2F)6, 4Pal10, αMeL13, Orn16, Aib20, K17 and K25: K(AEEA2-(γ-Glu)-(4-(4-tert-butylphenyl)butanoyl)), C-terminal NH2) [Example 68] ; wanted: its EC50, cAMP
-- reply 668 pM

-- ask # input binder: YXEGTXTSDXSIXLDXKAQXEFIXXLIEGGKSSGAPPPX (Aib2, αMeF(2F)6, 4Pal10, αMeL13, Orn16, Aib20, D-Glu24, αMeY25, Orn39, K17 and K31: K(AEEA2-(γ-Glu)-CO-(CH2)12-CO2H), C-terminal NH2) [Example 154] ; wanted: its EC50, cAMP
-- reply 1690 pM

Okay, now this binder:
-- ask # input binder: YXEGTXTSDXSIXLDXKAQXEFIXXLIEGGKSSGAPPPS (Aib2, αMeF(2F)6, 4Pal10, αMeL13, Orn16, Aib20, D-Glu24, αMeY25, K17 and K31: K(AEEA-(γ-Glu)-(10-(4-carboxyphenoxy)decanoyl)), C-terminal NH2) [Example 12] ; wanted: its EC50, cAMP
-- reply 423 pM

src = patent US20230265151A1
